targetOrTestSystem: T1, AFP158/HLA-A*02:01 complex (human)
T1 construct: flowed over the chip in SPR; also called AFP158 pro
testName: SPR, KD ratio to AS170036 VL1VH1;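 note: crude scFv captured on a sensor chip, peptide–HLA complex passed over at several concentrations, association then buffer dissociation, KD derived from on- and off-rates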
attributeMeasured: Affinity increase

| binder | attributeMeasured | reportedResult |
| --- | --- | --- |
| LY34L (scFv, AS170036 VL1VH1 scFv mutein) scFv: QSALTQPRSVSGSPGQSVTISCAGTSSDVGSENLVSWYQQHPGKAPKLMIYQVNKRASGVPDRFSGSKSGNTASLTISGLQAEDEADYYCASYRSSDHNIVFGGGTKLTVLGGGGSGGGGSGGGGSEVQLVESGGGLVQPGGSLRLSCAASGFTFSSYAMSWVRQAPGKGLEWVSTINSGTGSPYYADSVKGRFTISRDNSKNTLYLQMNSLRAEDTAVYYCAKNFFDGSWFLGPPAMDYWGQGTLVTVSSHHHHHH | Affinity increase | 0.3 fold |
| LE32H (scFv, AS170036 VL1VH1 scFv mutein) scFv: QSALTQPRSVSGSPGQSVTISCAGTSSDVGSHNYVSWYQQHPGKAPKLMIYQVNKRASGVPDRFSGSKSGNTASLTISGLQAEDEADYYCASYRSSDHNIVFGGGTKLTVLGGGGSGGGGSGGGGSEVQLVESGGGLVQPGGSLRLSCAASGFTFSSYAMSWVRQAPGKGLEWVSTINSGTGSPYYADSVKGRFTISRDNSKNTLYLQMNSLRAEDTAVYYCAKNFFDGSWFLGPPAMDYWGQGTLVTVSSHHHHHH | Affinity increase | 0.3 fold |
| LE32N (scFv, AS170036 VL1VH1 scFv mutein) scFv: QSALTQPRSVSGSPGQSVTISCAGTSSDVGSNNYVSWYQQHPGKAPKLMIYQVNKRASGVPDRFSGSKSGNTASLTISGLQAEDEADYYCASYRSSDHNIVFGGGTKLTVLGGGGSGGGGSGGGGSEVQLVESGGGLVQPGGSLRLSCAASGFTFSSYAMSWVRQAPGKGLEWVSTINSGTGSPYYADSVKGRFTISRDNSKNTLYLQMNSLRAEDTAVYYCAKNFFDGSWFLGPPAMDYWGQGTLVTVSSHHHHHH | Affinity increase | 0.4 fold |
